Biological target: MOP receptor (Homo sapiens, UniProt P35372)
Construct: expressed in transfected cells; host or cells: HEK293
Sequence (P35372 whole entry): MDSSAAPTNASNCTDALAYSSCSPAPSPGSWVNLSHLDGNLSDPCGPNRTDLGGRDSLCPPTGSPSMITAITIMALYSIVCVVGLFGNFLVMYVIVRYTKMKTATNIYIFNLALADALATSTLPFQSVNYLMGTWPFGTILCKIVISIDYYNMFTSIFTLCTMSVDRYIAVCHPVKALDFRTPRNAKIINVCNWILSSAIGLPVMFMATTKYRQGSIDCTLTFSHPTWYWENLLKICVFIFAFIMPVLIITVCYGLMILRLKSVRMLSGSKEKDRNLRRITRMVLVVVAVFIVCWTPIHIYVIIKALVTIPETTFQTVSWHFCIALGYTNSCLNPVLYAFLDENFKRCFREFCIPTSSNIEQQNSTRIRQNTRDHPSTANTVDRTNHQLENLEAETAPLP
Test: cell-based
Where a SMILES comes first, the peptide text is derived from it. [ ]: non-standard residue; d: D form. Phe(4-Cl) = N[C@@H](Cc1ccc(Cl)cc1)C(=O)O
Experimental endpoint: EC50 (nM)
State just the number; it will be interpreted in nM.

## Task Notebook: pull reported EC50 for MOP receptor (Homo sapiens, UniProt P35372), entry CC(C)C[C@H](NC(=O)[C@H](Cc1ccc(Cl)cc1)NC(=O)[C@H](C)NC(=O)[C@@H](N)Cc1ccc(O)cc1)C(=O)N[C@@H](CCCNC(=N)N)C(=O)N[C@H](CCCNC(=N)N)C(N)=O [KA307] (H-YA[Phe(4-Cl)]LR[dR]-NH2)
## Result 1870
